A collection of binders and their measured HEK Blue EC50
# targetOrTestSystem: human CD40 expressed on cells (human, UniProt P25942 21-277)
# Sequence (P25942 21-277 limits assumed): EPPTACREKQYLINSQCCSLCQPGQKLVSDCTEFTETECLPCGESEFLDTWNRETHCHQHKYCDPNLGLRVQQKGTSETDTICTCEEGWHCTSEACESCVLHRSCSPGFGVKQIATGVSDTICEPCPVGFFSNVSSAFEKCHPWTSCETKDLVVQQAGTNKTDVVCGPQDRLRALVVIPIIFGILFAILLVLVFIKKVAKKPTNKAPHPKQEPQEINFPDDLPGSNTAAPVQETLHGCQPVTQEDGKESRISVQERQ
# experimentalProtocol: cell-based or functional assay
Answer with a number only, understood to be in µg/mL.

Solved cases below.
| binder | HEK Blue EC50 (µg/mL) |
| --- | --- |
| 50F6 (mouse monoclonal antibody) (antibody, V domains shown) VH: QVQLEQSGDDLVKPGASVKLSCKASGYTFTTYWINWIKQRPGQGLEWIGRISPGSGSTHYNEMFKGKATLTVDTSSSTAYIQLSSLSSEDSAVYFCTRNDYWGQGTTLTVSS VL: DIVLTQSPLSLPVSLGDQASISCRSSQSIVNSNGNTYLEWYLQKPGQSPKLLIYKVSNRFSGVPDRFSGSGSGTDFTLKISRVEAEDLGVYYCFQGSHVPLTFGAGTKLELK | 0.0422 |
| 77D9 (mouse monoclonal antibody) (antibody, V domains shown) VH: QVKLEESGGGLVKPGGSLKLSCAASGFTFRNYAMSWVRQSPGERLEWVAEVSGSGYYTYYPDTVTGRFTISRDNANNTLYLEVSSLRSEDTAMYYCTSRAYWGQGTLVTVSA VL: IVMTQSPTLSLPVSLGDQASISCRSSQSIVLTNGNTYLEWYLQRPGQSPKLLIYKVSNRFSGVPDRFSGSGSGTDFTLKISRVEAEDLGVYYCFQGSHVPYTFGGGTKLEIK | 0.0223 |
| 16A6 (mouse monoclonal antibody) (antibody, V domains shown) VH: EVQLEQSGPGLVKPSQSLSLTCSVTGYSITTNYHWNWIRQFPGNKLEWMGYIKYDGSNNYNPSLKNRISITRDTSKNQFFLKLNSVTTEDTATYYCARLDYWGQGTSVTVSS VL: DIVLTQSTLSLSVSLGDQASISCRSSQSLENSNGNTFLNWFLQKPGQSPQLLIYKVSNRFSGVLDRFSGTGSGTDLTLTISRVEAEDLGVYFCLQVTHVPFTFGSGTKLEIK | 0.0114 |
| 142F7 (mouse monoclonal antibody) (antibody, V domains shown) VH: EVQLEQSGAELVRPGTSVKVSCKASGYAFTNYLIEWGIQRPGQGLEWIGVINPGTGGTNYNEKFKDKATLTTDKSSSTAYMQLSSLTSDDSAVYFCARGGSGFAYWGQGTLVTVSA VL: DIVLTQTTSSLSASLGDRVTISCRASQDINNYLNWYQQKPDGTVKLLIYYTSRLHSGVPSRFSGSGSGTDYSLTISNLEQEDIATYFCQQGNTLPWTFGGGTKLEIK | 0.0648 |

Could you now look at the following binder, please?
Challenge: Need HEK Blue EC50, item 29A10 (mouse monoclonal antibody) (antibody, V domains shown) VH: QVKLEQSGGGLVKPGGSLKLSCAASGFTFSHYYMYWVRQTPEKRLEWVATISDAGSYTYYSDSVKGRFTISRDNAKNNLYLQMSSLKSDDTAMYFCARTYYRGDGGYWFFDVWGAGTAVTVSS VL: DIVITQSTSSLAVSVGEKVTMSCESSQSLLYSSNQKNYLAWYQQKPGQSPKLLIYWASTRESGVPDRFTASGSGTDFTLTISSVKAEDLAVYYCQQYYRSPLTFGAGTKLELK
Response given: 0.14

Where these numbers come from: patent US10654939
